Molecular target: RARα (Homo sapiens, UniProt P10276)
Sequence (P10276 whole entry): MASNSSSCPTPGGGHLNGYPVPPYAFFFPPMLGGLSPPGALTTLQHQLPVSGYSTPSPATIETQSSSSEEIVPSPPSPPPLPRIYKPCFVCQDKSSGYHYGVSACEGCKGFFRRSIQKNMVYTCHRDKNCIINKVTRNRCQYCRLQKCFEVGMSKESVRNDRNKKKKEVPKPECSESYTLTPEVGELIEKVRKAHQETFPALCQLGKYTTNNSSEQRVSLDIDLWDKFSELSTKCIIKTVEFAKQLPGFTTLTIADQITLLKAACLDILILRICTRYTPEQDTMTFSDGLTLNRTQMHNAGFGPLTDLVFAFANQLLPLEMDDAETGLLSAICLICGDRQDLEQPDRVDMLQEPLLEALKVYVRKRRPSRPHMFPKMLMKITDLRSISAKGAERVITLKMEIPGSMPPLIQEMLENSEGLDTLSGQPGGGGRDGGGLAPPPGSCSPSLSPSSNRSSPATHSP
Test: Gel retardation DNA-binding assay with RARα-expressing COS cell extracts
Set-up: expressed in transfected cells; host or cells: COS cells (whole-cell extract)
Conditions: unlabeled competitor oligonucleotide; COS cell extracts
Method: For DNA binding assays, COS cells were cultured in DMEM with 10% calf bovine serum and transfected by the calcium phosphate method with 20 μg of the pCMX receptor expression plasmid for 6 hours followed by a glycerol shock. […] Oligonucleotides listed in FIG. 3 were used as a probe to test specific DNA-binding of the RARα and TRβ in a gel retardation assay. On the βRARE, a faint background binding activity was detected in the mock transfected COS cell extract. […]
Readout Type: competition for RARα binding to 32P-labeled βRARE

{"Substance": "5′-AAGCTTAAG-GGTTCA-CCGAA-AGTTCA-CTCGCATAGCTT-3′ (SEQ ID NO:6) (AAGCTTAAGGGTTCACCGAAAGTTCACTCGCATAGCTT; DNA, backbone not given here) [βRE2, oligonucleotide including the β retinoic acid response element; βRARE corresponds to βRE2]", "Readout Value": "effective competitors"}
{"Substance": "MHC-R: MHC-T with half-site spacing increased by one nucleotide (SEQ ID NO:24) (AGCTGGAGGTGAACAGGAGGTCAGCAAGCT; DNA, backbone not given here; double-stranded response element with agct overhangs, cloned into reporter plasmid)", "Readout Value": "effective competitors"}
{"Substance": "TREp: optimized palindromic rat growth hormone TRE (SEQ ID NO:10) (AGCTTCAGGTCATGACCTGAGAGCT; DNA, backbone not given here; double-stranded response element with agct overhangs, cloned into reporter plasmid) [reference compound]", "Readout Value": "effective competitors"}
